Where these numbers come from: patent US11667651B2

Target: UniProt:P48426
Sequence (P48426 1-406): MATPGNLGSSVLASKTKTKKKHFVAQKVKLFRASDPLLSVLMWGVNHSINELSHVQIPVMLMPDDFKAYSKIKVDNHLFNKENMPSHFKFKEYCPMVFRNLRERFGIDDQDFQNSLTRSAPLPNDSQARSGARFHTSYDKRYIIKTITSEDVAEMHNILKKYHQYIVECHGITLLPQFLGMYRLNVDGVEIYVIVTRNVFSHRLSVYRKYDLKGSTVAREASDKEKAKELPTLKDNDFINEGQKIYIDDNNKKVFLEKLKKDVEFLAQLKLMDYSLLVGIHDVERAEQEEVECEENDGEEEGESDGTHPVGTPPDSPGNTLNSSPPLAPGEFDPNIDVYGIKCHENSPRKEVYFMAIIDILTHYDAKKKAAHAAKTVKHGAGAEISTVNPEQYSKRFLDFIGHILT
Test: Kinase Assay PIP4K2 A (Table 2)
Type: biochemical
Set-up: 4 nM PIP4K2A (full length protein, SignalChem); purchased SignalChem
Conditions: compounds listed under IC50 bins
pIC50: −log10 of the molar value.
# pIC50 listing for each entry below
measure-name: pIC50

>>> observed_value("Cc1nc2ncc(Nc3ccc(-c4ccc(C(=O)N(C)C)cc4)cn3)cc2o1")
"6.00 to 7.00"
>>> observed_value("CN(C)C/C=C/C(=O)NCC(=O)Nc1cccc(CCC(=O)Nc2cncc(Nc3ccc(-c4ccc(C(=O)N(C)C)cc4)cn3)c2)c1")
"6.00 to 7.00"
>>> observed_value("O=C1CCCN1c1ccc(-c2ccc(Nc3cnc4c(c3)N3C(=O)CC[C@H]3CO4)nc2)c(F)c1")
"8.00 to 9.00"
>>> observed_value("CN(C)C(=O)c1ccc(-c2ccc(Nc3cncc(NC(=O)c4ccc(N)cc4)c3)nc2)cc1")
"7.00 to 8.00"
>>> observed_value("CN(C)C(=O)c1ccc(-c2ccc(Nc3cncc(N4CCN(Cc5cscn5)C4=O)c3)nc2)cc1")
"8.00 to 9.00"
>>> observed_value("O=C1CCCN1c1ccc(-c2ccc(Nc3cnc4c(c3)N3C(=O)C(O)C[C@H]3CO4)nc2)cc1 (some centres unmarked)")
"8.00 to 9.00"
>>> observed_value("CN(C)C(=O)c1ccc(-c2ccc(Nc3cncc(NC(=O)CCc4ccccc4)c3)nc2)cc1")
"7.00 to 8.00"
>>> observed_value("Cc1cc(Nc2cccnc2)ncc1-c1ccc(C(=O)N(C)C)cc1")
"6.00 to 7.00"

----------
# pIC50 listing for each entry below
Biological target: PIP4K2A (Homo sapiens, UniProt P48426)
Sequence (P48426 1-406): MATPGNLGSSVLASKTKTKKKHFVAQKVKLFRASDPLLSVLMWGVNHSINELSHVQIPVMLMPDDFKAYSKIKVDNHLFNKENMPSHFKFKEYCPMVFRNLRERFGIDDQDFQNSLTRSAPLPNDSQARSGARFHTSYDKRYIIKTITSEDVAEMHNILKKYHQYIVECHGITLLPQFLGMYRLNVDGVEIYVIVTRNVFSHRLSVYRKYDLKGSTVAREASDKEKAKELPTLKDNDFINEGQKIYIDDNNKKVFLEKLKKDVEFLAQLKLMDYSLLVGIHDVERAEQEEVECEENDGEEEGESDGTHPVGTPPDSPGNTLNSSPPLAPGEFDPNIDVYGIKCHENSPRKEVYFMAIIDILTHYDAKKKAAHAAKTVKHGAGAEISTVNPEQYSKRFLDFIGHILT
Assay: Kinase Assay PIP4K2 A (Table 2)
Assay type: biochemical
Design: 4 nM PIP4K2A (full length protein, SignalChem); purchased SignalChem
Conditions: compounds listed under IC50 bins
pIC50: −log10 of the molar value.
measure-name: pIC50

>>> observed_value("CN(C)C/C=C/C(=O)Nc1cccc(C(=O)NCc2ccc(Nc3ccc(-c4ccc(C(=O)N(C)C)cc4)cn3)cn2)c1")
"6.00 to 7.00"
>>> observed_value("COC(=O)N1CCOc2ncc(Nc3ccc(-c4ccc(C(=O)N(C)C)cc4)cn3)cc21")
"8.00 to 9.00"
>>> observed_value("CN(C)C(=O)c1ccc(-c2ccc(Nc3cnc4c(c3)N(C(=O)C3CC3)CCO4)nc2)cc1")
"8.00 to 9.00"
>>> observed_value("CN1CC2(CCN(c3ccc(Nc4cnc5c(c4)N4C(=O)CC[C@H]4CO5)nc3)CC2)OC1=O")
"< 6.00"
>>> observed_value("CN(C)C/C=C/C(=O)Nc1cccc(CCC(=O)Nc2cncc(Nc3ccc(-c4ccc(C(=O)N(C)C)cc4)cn3)c2)c1")
"8.00 to 9.00"
>>> observed_value("COc1ccc(C(=O)Nc2cncc(Nc3ccc(-c4ccc(C(=O)N(C)C)cc4)cn3)c2)cc1")
"7.00 to 8.00"
>>> observed_value("CN(C)C(=O)c1ccc(-c2ccc(Nc3cncc(NC(=O)Cc4ccccc4)c3)nc2)cc1")
"7.00 to 8.00"
>>> observed_value("O=C1CCCN1c1ccc(-c2ccc(Nc3cnc4c(c3)OCCO4)nc2)cc1")
"7.00 to 8.00"
>>> observed_value("CN(C)C(=O)c1ccc(-c2ccc(Nc3cncc(N4Cc5ccccc5C4=O)c3)nc2)cc1")
"7.00 to 8.00"
>>> observed_value("O=C1CCCN1c1ccc(-c2cnc(Nc3cnc4c(c3)N3C(=O)CC[C@H]3CO4)cc2OC2CCC2)cc1")
"≥ 9.00"
>>> observed_value("Cn1cnnc1-c1ccc(-c2ccc(Nc3cccnc3)nc2)cc1")
"6.00 to 7.00"
>>> observed_value("CN(C)C(=O)c1ccc(-c2ccc(Nc3cncc(OC(F)F)c3)nc2)cc1")
"6.00 to 7.00"
>>> observed_value("CN(C)C(=O)c1ccc(-c2ccc(Nc3cncc(NC(=O)c4cccnc4)c3)nc2)cc1")
"7.00 to 8.00"
>>> observed_value("O=C1CCCN1c1ccc(-c2cnc(Nc3cnc4c(c3)N3C(=O)CC[C@H]3CO4)cc2C2CC2)cc1")
"8.00 to 9.00"
>>> observed_value("CN(C)C(=O)c1ccc(-c2ccc(Nc3cccnc3)nc2)cc1")
"6.00 to 7.00"
>>> observed_value("COc1ncc(Nc2ccc(-c3ccc(N4CCCC4=O)cc3)cn2)cc1NC(C)=O")
"6.00 to 7.00"
>>> observed_value("COc1ncc(Nc2ccc(-c3ccc(C(=O)N(C)C)cc3)cn2)cn1")
"6.00 to 7.00"
>>> observed_value("CN(C)C(=O)c1ccc(-c2ccc(Nc3cnc4c(c3)N(S(C)(=O)=O)CCO4)nc2)cc1")
"7.00 to 8.00"
>>> observed_value("CC(=O)N1CCN(C)c2ncc(Nc3ccc(-c4ccc(C(=O)N(C)C)cc4)cn3)cc21")
"7.00 to 8.00"
>>> observed_value("CN(C)C(=O)c1ccc(-c2ccc(Nc3cccnc3)nc2)nc1")
"< 6.00"
>>> observed_value("COc1ncc(Nc2ccc(-c3ccc(N4CCCC4=O)cc3)cn2)cc1NS(C)(=O)=O")
"7.00 to 8.00"
>>> observed_value("CN(C)C(=O)c1ccc(-c2ccc(Nc3cncc(N4CCN(C)C4=O)c3)nc2)cc1")
"7.00 to 8.00"
>>> observed_value("CN(C)C(=O)c1ccc(-c2ccc(Nc3cncc(CCN4CCOCC4)c3)nc2)cc1")
"6.00 to 7.00"
>>> observed_value("CN(C)C/C=C/C(=O)Nc1ccc(CCC(=O)Nc2cncc(Nc3ccc(-c4ccc(C(=O)N(C)C)cc4)cn3)c2)cc1")
"8.00 to 9.00"
>>> observed_value("CN(C)C(=O)c1ccc(-c2ccc(Nc3cnc4ccn(S(C)(=O)=O)c4c3)nc2)cc1")
"7.00 to 8.00"
>>> observed_value("CN(Cc1ccco1)C(=O)c1ccc(-c2ccc(Nc3cccnc3)nc2)cc1")
"6.00 to 7.00"
>>> observed_value("COCc1nc(Nc2cnc3c(c2)N2C(=O)C4(CC4)C[C@H]2CO3)ncc1-c1ccc(N2CCCC2=O)cc1")
"8.00 to 9.00"
>>> observed_value("Cc1cnnn1-c1ccc(-c2ccc(Nc3cnc4c(c3)N3C(=O)CC[C@H]3CO4)nc2)cc1")
"8.00 to 9.00"
>>> observed_value("CN(C)C(=O)c1ccc(-c2ccc(Nc3cccnc3)nc2)cn1")
"< 6.00"
>>> observed_value("C[C@@H](c1ccccc1)N1CCN(c2cncc(Nc3ccc(-c4ccc(C(=O)N(C)C)cc4)cn3)c2)C1=O")
"7.00 to 8.00"
>>> observed_value("CN(C)C(=O)c1ccc(-c2ccc(Nc3cncc(NC(=O)c4ccncc4)c3)nc2)cc1")
"7.00 to 8.00"
>>> observed_value("CC(C)C(=O)N1CCOc2ncc(Nc3ccc(-c4ccc(N5CCCC5=O)cc4)cn3)cc21")
"8.00 to 9.00"
